I'd appreciate it if you could supply pIC50 values for the items below.
- targetDesc: KRAS G12V (Homo sapiens, UniProt P01116, G12V)
- Sequence (P01116 1-188 isoform P01116-2 G12V): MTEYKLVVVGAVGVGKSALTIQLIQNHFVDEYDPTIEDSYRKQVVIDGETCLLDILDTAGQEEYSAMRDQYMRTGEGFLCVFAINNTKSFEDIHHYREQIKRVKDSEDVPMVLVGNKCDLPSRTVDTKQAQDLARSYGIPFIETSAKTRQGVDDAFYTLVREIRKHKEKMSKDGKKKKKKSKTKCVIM
- experimentDescription: HTRF assay, interaction of KRAS G12V with SOS1
- protocolConditions: Ras::SOS1 interaction, read-out: Inhibition of KRAS G12V (IC50)
pIC50: −log10 of the molar value.

Known pIC50 results, listed for orientation:
CN(C)CCC1CC=CCCN2CCOc3c(Cl)c(-c4ccc(F)c5sc(N)c(C#N)c45)c(F)c4nc(nc2c34)O1 (single isomer, unassigned) [Compound 148] ... ≥ 5.30
CN(C)CC1CC/C=C/CCN2CCOc3c(Cl)c(-c4ccc(F)c5sc(N)c(C#N)c45)c(F)c4nc(nc2c34)O1 (stereo not drawn) [Compound 101] ... ≥ 5.30

Please find the next compound below.
pIC50 for CN1C[C@@H]2C[C@H]1COc1nc3c4c(c(Cl)c(-c5ccc(F)c6sc(N)c(C#N)c56)c(F)c4n1)OCCN3CCCO2 (single isomer, unassigned) [Compound 135] ?
≥ 5.30

Provenance of the data: patent US20240270736A1
